// data source = paper PMC3220188

assay_overview: in vivo
Format: in vivo, CD-1 female mice
study_conditions: female, CD-1, mouse, in vivo, po, 25 mg/kg
reported_metric: half-life (h)
Provide the reading as a plain figure in h.

Form field: reported half-life of Cc1ccc(NC(=O)c2ccccc2)cc1Nc1nccn1-c1cc(NC2CCCC2)ncn1 [Compound 1]
2.5

# iterate: Cc1ccc(C(=O)N2CCOCC2)cc1Nc1nccn1-c1cc(NC2CC2)ncn1 [Compound 3]
2.3

# iterate: c1ccc(-c2nc3cc(Nc4nccn4-c4cc(NC5CCCC5)ncn4)ccc3[nH]2)cc1 [Compound 2]
2.2

* * *

Exercise: for every item that follows, state its recorded AUC.
assay_overview: in vivo
Type: in vivo, CD-1 female mice
study_conditions: female, CD-1, mouse, in vivo, po, 100 mg/kg
Provide the reading as a plain figure in ng·h/mL.

Form field: reported AUC of CC[C@@H](CO)NCCN[C@@H](CC)CO [EMB, ethambutol, reference compound]
8000

# iterate: Cc1ccc(C(=O)N2CCOCC2)cc1Nc1nccn1-c1cc(NC2CC2)ncn1
59300
